Target: T1, human CXCR2 (human, UniProt P25025 1-360)
T1 sequence: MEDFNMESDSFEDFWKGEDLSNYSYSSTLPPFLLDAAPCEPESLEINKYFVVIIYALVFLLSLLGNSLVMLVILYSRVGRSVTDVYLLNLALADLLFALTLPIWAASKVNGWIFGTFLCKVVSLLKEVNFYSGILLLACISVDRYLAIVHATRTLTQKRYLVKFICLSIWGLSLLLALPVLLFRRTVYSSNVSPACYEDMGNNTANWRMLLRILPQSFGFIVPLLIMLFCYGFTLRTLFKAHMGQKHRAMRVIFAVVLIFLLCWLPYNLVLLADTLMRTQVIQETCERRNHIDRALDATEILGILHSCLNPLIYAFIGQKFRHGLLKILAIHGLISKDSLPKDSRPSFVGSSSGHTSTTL
Assay: cell-based or functional assay

binder	unit-annotation	IC50, CXCL1, Tango assay
BKO-4A8 variant VH I94K (antibody, human IgG4 S228P, lambda, V domains shown, IgG4 S228P, lambda; parental light chain; also called 4A8 VH I94K) VH: EVQLLESGGGLVQPGGSLRLSCAASGFTFSSSTMSWVRQAPGKGLEWVSAISGRGRNTYYADSVKGRFTISRDNSRNTLYLQMNSLRAEDTAVYYCAKQMGYWGQGILVTVSS VL: QSALTQPPSASGSPGQSVTISCIGTSSDVGGYNYVSWYQQHPDKAPKLMIYEVNKRPSGVPDRFSGSKSGNTASLTVSGLQAEDEADYYCSSYAGNNNFGVFGGGTKLTVLG	nM	0.078
BKO-4A8 variant VL N94Y (antibody, human IgG4 S228P, lambda, V domains shown, IgG4 S228P, lambda; parental heavy chain; also called 4A8 VL N94Y) VH: EVQLLESGGGLVQPGGSLRLSCAASGFTFSSSTMSWVRQAPGKGLEWVSAISGRGRNTYYADSVKGRFTISRDNSRNTLYLQMNSLRAEDTAVYYCAIQMGYWGQGILVTVSS VL: QSALTQPPSASGSPGQSVTISCIGTSSDVGGYNYVSWYQQHPDKAPKLMIYEVNKRPSGVPDRFSGSKSGNTASLTVSGLQAEDEADYYCSSYAGYNNFGVFGGGTKLTVLG	nM	0.164
